- experimental system: B-Raf delta1-415 (Homo sapiens)
- Sequence (P15056 416-766): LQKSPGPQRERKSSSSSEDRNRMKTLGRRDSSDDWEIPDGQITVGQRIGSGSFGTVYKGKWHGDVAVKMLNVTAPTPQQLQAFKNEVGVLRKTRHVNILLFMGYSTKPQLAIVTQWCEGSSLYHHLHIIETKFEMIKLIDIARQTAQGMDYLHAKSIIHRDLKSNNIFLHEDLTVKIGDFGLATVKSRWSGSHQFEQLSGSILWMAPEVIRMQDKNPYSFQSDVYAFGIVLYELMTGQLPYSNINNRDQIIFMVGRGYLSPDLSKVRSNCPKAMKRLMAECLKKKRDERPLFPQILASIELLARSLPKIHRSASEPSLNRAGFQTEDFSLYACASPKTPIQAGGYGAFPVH
- protocol text: B-Raf kinase inhibition (MAPH filter plate, 33P-ATP, MEK1 substrate)
- condition context: read-out: Biochemical IC50 B-Raf
value kind: IC50

[[record]]
compound = "COn1c(=O)c(-c2c(Cl)cccc2Cl)cc2cnc(Nc3cccc(CN4CCC(F)(F)C4)c3)nc21"
experimental_system = "B-Raf delta1-415 (Homo sapiens)"
value_kind = "IC50"
readout_value = "> 1 µM"

[[record]]
compound = "COn1c(=O)c(-c2c(F)cccc2Cl)cc2cnc(Nc3ccc(N4CCN(C(C)C)CC4)cc3)nc21"
experimental_system = "B-Raf delta1-415 (Homo sapiens)"
value_kind = "IC50"
readout_value = "< 0.1 µM"

[[record]]
compound = "COn1c(=O)c(-c2ccccc2Cl)cc2cnc(Nc3cccc(CO)c3)nc21"
experimental_system = "B-Raf delta1-415 (Homo sapiens)"
value_kind = "IC50"
readout_value = "< 0.5 µM"

[[record]]
compound = "COn1c(=O)c(-c2c(Cl)cccc2Cl)cc2cnc(Nc3cccc(CN4CC[C@@H](O)C4)c3)nc21"
experimental_system = "B-Raf delta1-415 (Homo sapiens)"
value_kind = "IC50"
readout_value = "< 0.5 µM"

[[record]]
compound = "COn1c(=O)c(-c2cc(NC(=O)c3ccc(Cl)cc3)ccc2Cl)cc2cnc(Nc3ccccc3)nc21"
experimental_system = "B-Raf delta1-415 (Homo sapiens)"
value_kind = "IC50"
readout_value = "> 1 µM"

[[record]]
compound = "COc1cccc(Nc2ncc3cc(-c4c(Cl)cccc4Cl)c(=O)n(OCCCN)c3n2)c1"
experimental_system = "B-Raf delta1-415 (Homo sapiens)"
value_kind = "IC50"
readout_value = "< 0.1 µM"

[[record]]
compound = "O=c1ccc2cnc(Nc3ccccc3)nc2n1OC1CCCC1"
experimental_system = "B-Raf delta1-415 (Homo sapiens)"
value_kind = "IC50"
readout_value = "> 1 µM"

[[record]]
compound = "O=c1c(-c2c(F)cccc2Cl)cc2cnc(Nc3ccccc3)nc2n1OCc1cccnc1"
experimental_system = "B-Raf delta1-415 (Homo sapiens)"
value_kind = "IC50"
readout_value = "< 0.5 µM"

[[record]]
compound = "COn1c(=O)c(-c2c(F)cccc2Cl)cc2cnc(Nc3cccc(CO)c3)nc21"
experimental_system = "B-Raf delta1-415 (Homo sapiens)"
value_kind = "IC50"
readout_value = "< 0.1 µM"

[[record]]
compound = "COc1ccc(OC)c(-c2cc3cnc(Nc4cccc(CO)c4)nc3n(OC)c2=O)c1"
experimental_system = "B-Raf delta1-415 (Homo sapiens)"
value_kind = "IC50"
readout_value = "< 5 µM"

[[record]]
compound = "COn1c(=O)c(-c2c(Cl)cccc2Cl)cc2cnc(Nc3ccc(NS(C)(=O)=O)cc3)nc21"
experimental_system = "B-Raf delta1-415 (Homo sapiens)"
value_kind = "IC50"
readout_value = "< 0.1 µM"

[[record]]
compound = "COn1c(=O)c(-c2cccc(NC(=O)c3ccccc3)c2Cl)cc2cnc(Nc3ccccc3)nc21"
experimental_system = "B-Raf delta1-415 (Homo sapiens)"
value_kind = "IC50"
readout_value = "> 10 µM"

[[record]]
compound = "COn1c(=O)c(-c2c(Cl)cccc2Cl)cc2cnc(N)nc21"
experimental_system = "B-Raf delta1-415 (Homo sapiens)"
value_kind = "IC50"
readout_value = "< 0.5 µM"

[[record]]
compound = "COn1c(=O)c(-c2cc(NC(=O)c3ccccc3)ccc2Cl)cc2cnc(Nc3ccc(N4CCN(C)CC4)cc3)nc21"
experimental_system = "B-Raf delta1-415 (Homo sapiens)"
value_kind = "IC50"
readout_value = "< 0.5 µM"

[[record]]
compound = "COn1c(=O)c(-c2c(Cl)cccc2Cl)cc2cnc(Nc3ccc(OCC(O)CO)cc3)nc21 (stereo not shown)"
experimental_system = "B-Raf delta1-415 (Homo sapiens)"
value_kind = "IC50"
readout_value = "< 0.5 µM"

[[record]]
compound = "COn1c(=O)c(-c2c(Cl)cccc2Cl)cc2cnc(Nc3cccc(S(=O)(=O)CCO)c3)nc21"
experimental_system = "B-Raf delta1-415 (Homo sapiens)"
value_kind = "IC50"
readout_value = "< 0.1 µM"

